Overview of reported kon across a group of binders:
- Target: T1, full length recombinant human 2N4R tau (amino acids 1-441) (human, UniProt P10636 1-758)
- T1 construct: Bought (rPeptide); recombinant, non-phosphorylated; also called recombinant tau
- T1 sequence (P10636 other isoform, or with tags, fused parts or gaps limits assumed): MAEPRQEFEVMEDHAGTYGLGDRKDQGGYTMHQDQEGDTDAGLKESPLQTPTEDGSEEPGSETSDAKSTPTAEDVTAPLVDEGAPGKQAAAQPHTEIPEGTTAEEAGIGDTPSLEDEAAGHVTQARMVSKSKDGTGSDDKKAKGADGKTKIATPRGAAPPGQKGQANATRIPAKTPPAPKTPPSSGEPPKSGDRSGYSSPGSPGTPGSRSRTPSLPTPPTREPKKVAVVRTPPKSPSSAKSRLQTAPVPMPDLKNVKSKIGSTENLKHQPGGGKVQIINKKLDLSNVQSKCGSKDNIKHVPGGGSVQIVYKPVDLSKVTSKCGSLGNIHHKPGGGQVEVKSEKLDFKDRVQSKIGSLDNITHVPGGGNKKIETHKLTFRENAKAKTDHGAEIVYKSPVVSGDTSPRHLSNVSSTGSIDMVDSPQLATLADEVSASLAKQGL
- Assay Details: SPR Biacore SCK, IgG on Protein A, tau analyte
Give your result in M⁻¹ s⁻¹ as a bare value.

The recorded kon for entry Clone 17 (VH1Vκ5), humanised variant of clone #28, human IgG1 (antibody, V domains shown, also called VH1VK5) VH: QSLQESGGGLVKPSETLSLTCTVSGFSLNNYDMSWVRQAPGKGLEWIGTVSTTYRRYYASWAKGRFTISKTSSTTVDLKMTSLTAEDTATYFCAASGIWGRGTLVTVSS VL: DIQMTQSPSTLSASVGDRVTITCQSSQRVSSSYLAWYQQKPGQPPKRLIFLASTLESGVPSRFSGSGSGTEFTLTISSLQPDDFATYYCAGTYTGSIWAFGGGTKVEIK equals 104000

Consider now this further binder.
The recorded kon for entry Clone 22 (VH3Vκ1), humanised variant of clone #28, human IgG1 (antibody, V domains shown, also called VH3VK1) VH: QVQLQESGPGLVKPSETLSLTCTVSGFSLNNYDMSWVRQAPGKGLEWIGTVSTTYRRYYASWAKGRFTISKTSSTTVDLQMTSLTAEDTATYFCAASGIWGRGTLVTVSS VL: AQVLTQSTSPLSASVGDRVTITCQSSQRVYSNYLAWYQQKPGQPPKRLIFLASTLESGVPSRFSGSGSGTEFTLTISSLQCDDFATYYCAGTYTGSIWAFGGGTEVVIK equals 56700
